- PROCEDURE_TEXT: Atogepant-esomeprazole drug interaction study: atogepant PK
- Type: in vivo, human
- CONDITION_DESCRIPTION: human, plasma, oral, 60 mg, atogepant 60 mg alone; read-out: median plasma atogepant tmax
MEASURED_PARAMETER: Tmax (h)
The answer is to be given in h; state only the numeric part.

# get_value(readout='Tmax', item= C[C@@H]1[C@H](c2c(F)ccc(F)c2F)C[C@H](NC(=O)c2cnc3c(c2)C[C@@]2(C3)C(=O)Nc3ncccc32)C(=O)N1CC(F)(F)F [atogepant] )
1.51

###

- PROCEDURE_TEXT: Atogepant-itraconazole drug interaction study: atogepant plasma PK
- Format: in vivo, human
- CONDITION_DESCRIPTION: both sexes, human, plasma, oral; Treatment A: atogepant 60 mg single dose alone, fasted
MEASURED_PARAMETER: half-life (h)
The answer is to be given in h; state only the numeric part.

# get_value(readout='half-life', item= `C[C@@H]1[C@H](c2c(F)ccc(F)c2F)C[C@H](NC(=O)c2cnc3c(c2)C[C@@]2(C3)C(=O)Nc3ncccc32)C(=O)N1CC(F)(F)F` )
11.2

###

- PROCEDURE_TEXT: Hepatic impairment study: atogepant plasma PK
- Type: in vivo, human
- CONDITION_DESCRIPTION: human, plasma, po, 60 mg, moderate hepatic impairment, single 60 mg oral dose; read-out: Cmax
MEASURED_PARAMETER: Cmax (ng/mL)
The answer is to be given in ng/mL; state only the numeric part.

# get_value(readout='Cmax', item= `C[C@@H]1[C@H](c2c(F)ccc(F)c2F)C[C@H](NC(=O)c2cnc3c(c2)C[C@@]2(C3)C(=O)Nc3ncccc32)C(=O)N1CC(F)(F)F` )
529

###

- PROCEDURE_TEXT: Food effect study (high-fat meal), atogepant IR tablet: plasma PK
- Format: in vivo, human
- CONDITION_DESCRIPTION: both sexes, human, plasma, oral, 60 mg, Study Intervention B: 1 × 60 mg IR tablet, fasted; read-out: Cmax
MEASURED_PARAMETER: Cmax (ng/mL)
The answer is to be given in ng/mL; state only the numeric part.

# get_value(readout='Cmax', item= C[C@@H]1[C@H](c2c(F)ccc(F)c2F)C[C@H](NC(=O)c2cnc3c(c2)C[C@@]2(C3)C(=O)Nc3ncccc32)C(=O)N1CC(F)(F)F [atogepant] )
732

###

- PROCEDURE_TEXT: Hepatic impairment study: atogepant plasma protein binding
- Assay type: in vitro ADME, human
- CONDITION_DESCRIPTION: human, plasma, oral, 60 mg, moderate-impaired, 2 hr post dose; read-out: plasma protein binding, percent bound (converted)
MEASURED_PARAMETER: fraction unbound at 2 h

# get_value(readout='fraction unbound at 2 h', item= C[C@@H]1[C@H](c2c(F)ccc(F)c2F)C[C@H](NC(=O)c2cnc3c(c2)C[C@@]2(C3)C(=O)Nc3ncccc32)C(=O)N1CC(F)(F)F [atogepant] )
0.029

###

- PROCEDURE_TEXT: Hepatic impairment study: atogepant plasma PK
- Assay type: in vivo, human
- CONDITION_DESCRIPTION: human, plasma, po, 60 mg, severe hepatic impairment, single 60 mg oral dose; read-out: AUC0-t
- Experimental: A multicenter, non-randomized, open-label, parallel-group, single-dose study was carried out to evaluate the PK, safety, and tolerability profiles of atogepant in participants with impaired hepatic function and matched healthy participants with normal hepatic function after a single 60-mg oral dose of atogepant. The primary outcome measures were PK parameters of atogepant derived from plasma concentrations. […]
MEASURED_PARAMETER: AUC(0-t)
Hey, just the number and the unit after it is fine.

# get_value(readout='AUC(0-t)', item= C[C@@H]1[C@H](c2c(F)ccc(F)c2F)C[C@H](NC(=O)c2cnc3c(c2)C[C@@]2(C3)C(=O)Nc3ncccc32)C(=O)N1CC(F)(F)F [atogepant] )
3800 ng·h/mL
